biological target: T1, control peptide A2E-11/HLA-A*02:01 complex on T2 cells (member of the P19 mixture) (human); assay: flow cytometry, phage on T2 cells
T1 construct: Loaded on T2 cells as part of the mixture of 19 control peptides
MEASURED QUANTITY: binding result

Known binding result results, listed for orientation:
# BINDER, OBSERVED VALUE
data = [
    ("PSA146/HLA-A*02:01-specific scFv phage clone #14 (scFv, V domains shown) VH: EVQLVQSGAEVKKPGASVKVSCKASGYTFTGYFMHWVRQAPGQGLEWMGGFDPEDGETIYAQKFQGRVTMTEDTSTDTAYMELSSLRSEDTAVYYCARYSYDLWGQGTLVTVSS VL: QTVVTQEPSLTVSPGGTVTLTCASSTGAVTSGYYPNWFQQKPGQAPRALIYSTSNKHSWTPARFSGSLLGGKAALTLSGVQPEDEAEYYCLLYYGGAQWVFGGGTKLTVLG", "no binding"),
    ("PSA146/HLA-A*02:01-specific scFv phage clone #18 (scFv, V domains shown) VH: QVQLVQSGAEVKKPGESLKISCKGSGYSFTSYWIGWVRQMPGKGLEWMGIIYPGDSDTRYSPSFQGQVTISADKSISTAYLQWSSLKASDTAMYYCARWGSRGFLDAFDIWGQGTMVTVSS VL: QSVVTQPPSVSAAPGQRVTISCSGSSSNIGNNYVSWYQQLPGAAPRLLIYDNDKRPSGIPDRFSGSKSGTSATLGITGLQTGDEADYYCGTWDSSLSSGVFGGGTKLTVLG", "no binding"),
    ("PSA146/HLA-A*02:01-specific scFv phage clone #12 (scFv, V domains shown) VH: QMQLVQSGSEVKKPGASVKVSCKASGYTFTSYGISWVRQAPGQGLEWMGWISAYNGNTDYVQKLQGRVTMTTDTSTNTAYMELGSLGSDDTAVYYCARTNYNKYDIWGQGTLVTVSS VL: QSVLTQPPSVSGAPGQRVTISCTGSSSNIGAGYDVHWYQQLPGTAPKLLIYGNSNRPSGVPDRFSGSKSGTSASLAITGLQAEDEADYYCQSYDSSLSEVFGTGTKVTVLG", "no binding"),
    ("PSA146/HLA-A*02:01-specific scFv phage clone #17 (scFv, V domains shown) VH: QMQLVQSGAEVKKPGESLKISCKGSGYSFTSYWIGWVRQMPGKGLEWMGIIYPGDSDTRYSPSFQGQVTISADKSISTAYLQWSSLKASDTAMYYCARLVVPDAFDIWGQGTMVTVSS VL: QSVVTQPPSVSAAPGQKVTISCSGSSSNIGNNYVSWYQQLPGTAPKLLIYDNYKRPSGIPDRFSGSKSGTSATLGITGLQTGDEADYYCGTWDSSLSAGVFGGGTKLTVLG", "no binding"),
]

**Query** Output measured binding result for this item: PSA146/HLA-A*02:01-specific scFv phage clone #5 (scFv, V domains shown) VH: QVQLVQSGAEVKKPGDSVKVSCKPSGYNFLNYGINWVRQAPGQGLEWMGWISTYTGNTNYAQKLQGRVTFTTDTSTSTAYMEMRSLRSDDTAVYYCARSSEYYTWDHWGQGTLVTVSS VL: QSVLTQPPSVSGAPGQRVTISCTGSSSNIGAGYDVHWYQQLPGTAPKLLIYGNSNRPSGVPDRFSGSKSGTSASLAITGLQAEDEADYYCQSYDSSLSGWVFGGGTKLTVLG
**Result** no binding

**Query** // Input: PSA146/HLA-A*02:01-specific scFv phage clone #13 (scFv, V domains shown) VH: QVQLVQSGAEVKKPGASVKVSCKASGYTFTSYYMHWVRQAPGQGLEWMGGFDPEDGETIYAQKFQGRVTMTEDTSTDTAYMGLSSLRSEDTAVYYCARYSYDYWGQGTLVTVSS VL: QAVVTQEPSLTVSPGGTVTLTCASSTGAVTSGYYPNWFQQKPGQAPRALIYSTSNKHSWTPARFSGSLLGGKAALTLSGVQPEDEAEYYCLLYYGGAYVFGTGTKVTVLG . Output its binding result only.
**Result** no binding

**Query** Please look at this binder and report its binding result: PSA146/HLA-A*02:01-specific scFv phage clone #6 (scFv, V domains shown) VH: EVQLVQSGAEVKKPGASVKVSCKASGYTFTGYYIHWVRQAPGQGLEWMGGFDPEDGETIYAQKFQDRVTMTADTSTDTAYMELSSLRSEDTAVYYCARYGFDYWGQGTLVTVSS VL: QAVVTQEPSLTVSPGGTVTLTCASSTGAVTSGYYPNWFQLKPGQAPRALIYTTGKKHSWAPARFSGSLLGGKAALTLSGVQPEDEAEYYCLLYSGGVWVFGGGTKLTVLG
**Result** no binding

**Query** Quickly give me recorded binding result for PSA146/HLA-A*02:01-specific scFv phage clone #9 (scFv, V domains shown) VH: QVQLVQSGAEVKKPGASVKVSCKASGYTFTSYGISWVRQAPGQGLEWMGWISAYNGNTNYAQKLQGRVTMTTDTSTSTAYMELRSLRSDDTAVYYCARSSQYYVWDSWGQGTLVTVSS VL: QSVVTQPPSVSGAPGQRVTISCTGSSSNFGAGYDVHWYQQLPGTAPKLLIYGNSNRPSGVPDRFSGSKSGTSASLAITGLQAEDEADYYCQSYDSSLSGWVFGGGTKLTVLG
**Result** no binding

**Query** Item PSA146/HLA-A*02:01-specific scFv phage clone #15 (scFv, V domains shown) VH: QVQLVQSGAEVKKPGSSVKVSCKASGGTFSSYAISWVRQAPGQGLEWMGRIIPILGIANYAQKFQGRVTITADKSTSTAYMELSSLRSEDTAVYYCARVSQPVYGSSTYDIWGQGTLVTVSS VL: QAVLTQPPSASGTPGQRVTISCSGRSSNLGSNSVNWYQQVPGTAPKLLIFDNHQRPSGVPDRFSGSKSGTSASLAISGLRSEDETDYYCAAWDDSLNSVVFGGGTKLTVLG : provide binding result
**Result** no binding

Value source: patent US20200087400A1
